- EXPERIMENTAL TARGET: Kras and SOS1 (biotin-tagged human Kras loaded with GDP, His-tagged human SOS1) (Homo sapiens, UniProt P01116, G12D)
- Construct: made in house; host or cells: E. coli (stated for Kras only)
- Sequence (P01116 1-188 isoform P01116-2 G12D): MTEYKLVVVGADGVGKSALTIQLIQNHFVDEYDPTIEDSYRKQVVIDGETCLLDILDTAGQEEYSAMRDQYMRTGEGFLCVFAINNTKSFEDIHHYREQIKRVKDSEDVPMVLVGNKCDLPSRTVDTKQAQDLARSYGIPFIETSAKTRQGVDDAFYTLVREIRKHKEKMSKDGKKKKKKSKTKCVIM
- TEST PROTOCOL: Protein-protein interaction inhibition between Kras and SOS1 (KrasGl2D-SOS PPI) using AlphaScreen
- Assay type: binding
- CONDITIONS USED: AlphaScreen; biotin-tagged human Kras loaded with GDP, His-tagged human SOS1; read-out: KRAS G12D-SOS PPI IC50
Positions of bridges follow the written chain, without caps; N, C: chain ends. Non-standard residues stand in square brackets, D forms with d. Residues, ends and D or L forms follow the SMILES beside them. *: point of attachment. hPhe(3-Cl-4-CF3) = N[C@@H](CCc1ccc(C(F)(F)F)c(Cl)c1)C(=O)O; hPhe(3-F,4-CF3) = N[C@@H](CCc1ccc(C(F)(F)F)c(F)c1)C(=O)O; NMePhe(4-Me) = CN[C@@H](Cc1ccc(C)cc1)C(=O)O; NMeGly(cBu) = CN[C@H](C(=O)O)C1CCC1; NMeCha = CN[C@@H](CC1CCCCC1)C(=O)O; NMeGly(cPr) = CN[C@H](C(=O)O)C1CC1; NMeChg = CN[C@H](C(=O)O)C1CCCCC1; N(CH2CH2)2CF2 = FC1(F)CCN(*)CC1; NMeD = CN[C@@H](CC(=O)O)C(=O)O; NMeL = CN[C@@H](CC(C)C)C(=O)O; αMeL = CC(C)C[C@](C)(N)C(=O)O; NMeV = CN[C@H](C(=O)O)C(C)C; d(β3hA) = C[C@@H](N)CC(=O)O; Piperidide = C1CCN(*)CC1; Pyrrolidide = C1CCN(*)C1; Ac5c = NC1(C(=O)O)CCCC1; Aze = O=C(O)[C@@H]1CCN1; Sar = CNCC(=O)O
MEASUREMENT LABEL: pIC50
Numbers only, as −log10 of the molar value.

COMPOUND | pIC50
CC[C@H](C)[C@@H]1NC(=O)[C@H](C2CC2)N(C)C(=O)C[C@@H](C(=O)N2CCCCC2)N(C)C(=O)[C@H](C(C)C)N(C)C(=O)C2(CCCC2)NC(=O)[C@@H]2CCCN2C(=O)[C@H](CCc2ccc(C(F)(F)F)c(Cl)c2)NC(=O)CN(C)C(=O)[C@H](CC2CCCCC2)N(C)C(=O)CN(C)C(=O)CN(C)C1=O [Compound 980] ([NMeGly(cPr)]I[Sar][Sar][NMeCha][Sar][hPhe(3-Cl-4-CF3)]P[Ac5c][NMeV][NMeD]-Piperidide; lactam N-11) | 8.42
CC[C@H](C)[C@@H]1NC(=O)[C@H](CC(C)C)N(C)C(=O)C[C@@H](C)NC(=O)[C@H](CC(C)C)N(C)C(=O)C2(CCCC2)NC(=O)[C@@H]2CCN2C(=O)[C@H](CCc2ccc(C(F)(F)F)c(F)c2)NC(=O)CN(C)C(=O)[C@H](CC2CCCCC2)N(C)C(=O)CN(C)C(=O)CN(C)C1=O [Compound 1545] (cyclo([Ac5c][NMeL][d(β3hA)][NMeL]I[Sar][Sar][NMeCha][Sar][hPhe(3-F,4-CF3)][Aze])) | 7.38
CC[C@H](C)[C@@H]1NC(=O)[C@H](CC(C)C)N(C)C(=O)C[C@@H](C(=O)N(C)C)N(C)C(=O)[C@H](C(C)C)N(C)C(=O)C2(CCCC2)NC(=O)[C@H](CC(=O)N2CCC(F)(F)CC2)N(C)C(=O)[C@H](CCc2ccc(C(F)(F)F)c(Cl)c2)NC(=O)CN(C)C(=O)[C@H](CC2CCCCC2)N(C)C(=O)CN(C)C(=O)CN(C)C1=O [Compound 218] ([NMeL]I[Sar][Sar][NMeCha][Sar][hPhe(3-Cl-4-CF3)][NMeD](N(CH2CH2)2CF2)[Ac5c][NMeV][NMeD]-NMe2; lactam N-11) | 8.72
CC[C@H](C)[C@@H]1NC(=O)[C@H](CC(C)C)N(C)C(=O)C[C@@H](C)NC(=O)[C@H](C(C)C)N(C)C(=O)[C@](C)(CC(C)C)NC(=O)[C@@H]2CCCN2C(=O)[C@H](CCc2ccc(C(F)(F)F)c(Cl)c2)NC(=O)CN(C)C(=O)[C@H](CC2CCCCC2)N(C)C(=O)CN(C)C(=O)CN(C)C1=O [Compound 705] (cyclo(I[Sar][Sar][NMeCha][Sar][hPhe(3-Cl-4-CF3)]P[αMeL][NMeV][d(β3hA)][NMeL])) | 6.44

// below: pIC50 requested for another compound
Read the entry CC[C@H](C)[C@@H]1NC(=O)[C@H](C2CCC2)N(C)C(=O)C[C@@H](C(=O)N2CCCC2)N(C)C(=O)[C@H](C2CCCCC2)N(C)C(=O)C2(CCCC2)NC(=O)[C@@H]2CCCN2C(=O)[C@H](CCc2ccc(C(F)(F)F)c(Cl)c2)NC(=O)CN(C)C(=O)[C@H](Cc2ccc(C)cc2)N(C)C(=O)CN(C)C(=O)CN(C)C1=O [Compound 339] ([NMeGly(cBu)]I[Sar][Sar][NMePhe(4-Me)][Sar][hPhe(3-Cl-4-CF3)]P[Ac5c][NMeChg][NMeD]-Pyrrolidide; lactam N-11) and write its reported pIC50. 9.42

Origin of measurements: patent US12371454B2
